Where these numbers come from: paper PMC11480411

Target: histamine receptor H4 (HRH4) (Homo sapiens)
Sequence (Q9H3N8 whole entry): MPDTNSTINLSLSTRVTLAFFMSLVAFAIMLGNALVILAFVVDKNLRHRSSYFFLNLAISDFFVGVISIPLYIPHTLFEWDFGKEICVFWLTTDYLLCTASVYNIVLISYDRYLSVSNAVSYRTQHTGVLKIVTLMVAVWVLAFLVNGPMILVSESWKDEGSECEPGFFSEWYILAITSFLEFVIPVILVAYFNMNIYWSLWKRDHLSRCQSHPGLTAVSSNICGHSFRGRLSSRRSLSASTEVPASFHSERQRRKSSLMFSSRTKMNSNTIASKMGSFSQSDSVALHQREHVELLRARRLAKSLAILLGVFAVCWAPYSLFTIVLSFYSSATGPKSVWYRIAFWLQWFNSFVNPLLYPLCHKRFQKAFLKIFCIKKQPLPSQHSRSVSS
Experiment: PRESTO-Tango GPCR screen and dose-response
Conditions: PRESTO-Tango dose-response, n = 3; read-out: EC50 (HRH4 activation)
We begin with a simple list: items and their reported EC50.
Numeric answer only, unit µM assumed.

| smiles_string | readout_kind | result_unit | observed |
| --- | --- | --- | --- |
| CC(C)Cc1ncc(CCCNC(=N)N)[nH]c1=O | EC50 | µM | 12.5 |

Turning to the following molecule.
Enquiry: # lookup: EC50 of CC(C)Cc1ncc(CCCCNC(=N)N)[nH]c1=O
Return: 2.7
